Molecular target: mGlyT-1b (Mus musculus)
Construct: host or cells: Flp-in-CHO
Sequence (P28571 1-651 isoform P28571-2): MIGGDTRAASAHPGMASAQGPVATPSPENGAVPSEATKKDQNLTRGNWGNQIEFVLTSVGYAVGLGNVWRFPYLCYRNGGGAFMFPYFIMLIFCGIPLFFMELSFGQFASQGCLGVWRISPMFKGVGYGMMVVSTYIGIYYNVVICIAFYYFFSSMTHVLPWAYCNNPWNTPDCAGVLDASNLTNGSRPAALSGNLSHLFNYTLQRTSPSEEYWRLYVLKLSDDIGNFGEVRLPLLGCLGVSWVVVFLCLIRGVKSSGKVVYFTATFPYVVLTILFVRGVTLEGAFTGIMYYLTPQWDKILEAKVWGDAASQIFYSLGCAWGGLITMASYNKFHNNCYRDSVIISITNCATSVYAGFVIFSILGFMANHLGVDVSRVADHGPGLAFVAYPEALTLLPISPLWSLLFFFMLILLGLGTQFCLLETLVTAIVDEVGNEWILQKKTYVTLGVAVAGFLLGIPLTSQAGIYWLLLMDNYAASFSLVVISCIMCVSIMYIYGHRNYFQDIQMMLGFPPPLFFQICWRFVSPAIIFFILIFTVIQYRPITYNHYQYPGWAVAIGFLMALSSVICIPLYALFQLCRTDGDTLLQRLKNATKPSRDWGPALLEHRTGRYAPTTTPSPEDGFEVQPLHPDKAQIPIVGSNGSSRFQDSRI
Experiment: Glycine uptake inhibition assay (mGlyT-1b)
Assay type: cell-based
Conditions: inhibition of [3H]-glycine uptake in Flp-in-CHO cells transfected with mGlyT-1b cDNA; 20 min preincubation at 22° C.; read-out: IC50 (μM) at GlyT-1
Rule: IC50 below 0.03 µM gives true. Equal to or above 0.03 µM gives false.

1) C[C@H](Oc1ccc(S(C)(=O)=O)cc1C(=O)N1Cc2ccc(-c3ccc(F)cc3)cc2C1)C(F)(F)F	false
2) CS(=O)(=O)c1ccc(OCC(F)(F)C(F)(F)F)c(C(=O)N2Cc3ccc(C4CCOC4)cc3C2)c1 (racemic)	true
3) COC(=O)c1cccc2c1CCN2C(=O)c1cc(S(C)(=O)=O)ccc1O[C@@H](C)C(F)(F)F	false
4) C[C@H](Oc1ccc(S(C)(=O)=O)cc1C(=O)N1Cc2ccc(-c3ccccc3)cc2C1)C(F)(F)F	true
5) Cc1cc2c(cc1Cl)CN(C(=O)c1cc(S(C)(=O)=O)ccc1O[C@H](C)C(F)(F)F)C2	false
6) COc1cc2c(cc1C(F)(F)F)CN(C(=O)c1cc(S(C)(=O)=O)ccc1O[C@@H](C)C(F)(F)F)C2	false
7) CS(=O)(=O)c1ccc(OCC(F)(F)C(F)(F)F)c(C(=O)N2Cc3cc(Cl)c(N4C5CCC4COC5)cc3C2)c1	true
8) CS(=O)(=O)c1ccc(OCC2CCC2)c(C(=O)N2Cc3ccc(C4CCOCC4)cc3C2)c1	false
9) CS(=O)(=O)c1ccc(OCC(F)(F)C(F)(F)F)c(C(=O)N2Cc3cc(F)c(N4CCOCC4)cc3C2)c1	true
10) Cc1cc2c(cc1C(F)(F)F)CN(C(=O)c1cc(S(C)(=O)=O)ccc1O[C@@H](C)C(F)(F)F)C2	false
11) CCSc1cc2c(cc1C(F)(F)F)CN(C(=O)c1cc(S(C)(=O)=O)ccc1O[C@@H](C)C(F)(F)F)C2	false
12) CS(=O)(=O)c1ccc(-c2ccc(F)cc2)c(C(=O)N2Cc3cc(C(F)(F)F)cnc3C2)c1	false
13) CCc1cc2c(cc1C1CCOCC1)CN(C(=O)c1cc(S(C)(=O)=O)ccc1O[C@@H](C)C(F)(F)F)C2	false
14) CS(=O)(=O)c1ccc(-c2ccc(F)c(F)c2)c(C(=O)N2Cc3cnc(C(F)(F)F)cc3C2)c1	false
15) CS(=O)(=O)c1ccc(-c2cccc(F)c2)c(C(=O)N2Cc3cc(Cl)c(N4CCOCC4)cc3C2)c1	true
16) C[C@H](Oc1ccc(S(C)(=O)=O)cc1C(=O)N1Cc2ccc(C(F)(F)F)cc2C1)C(F)(F)F	true
17) CS(=O)(=O)c1ccc(OCC(F)(F)C(F)F)c(C(=O)N2Cc3cc(C(F)(F)F)cnc3C2)c1	true
18) CS(=O)(=O)c1ccc(-c2ccc(F)cc2)c(C(=O)N2Cc3ccc(C4CCOCC4)cc3C2)c1	true
19) CS(=O)(=O)c1ccc(OCC(F)(F)C(F)(F)F)c(C(=O)N2Cc3ccc(C4CCCOC4)cc3C2)c1 (racemic)	true
20) CS(=O)(=O)c1ccc(OCC2CCC2)c(C(=O)N2Cc3cnc(C(F)(F)F)cc3C2)c1	false
21) C[C@H](Oc1ccc(S(C)(=O)=O)cc1C(=O)N1Cc2cc(F)c(OC3CCOCC3)cc2C1)C(F)(F)F	true
22) CS(=O)(=O)c1ccc(-c2ccc(F)cc2)c(C(=O)N2Cc3cnc(C(F)(F)F)cc3C2)c1	false
23) CC(C)Oc1ccc(S(C)(=O)=O)cc1C(=O)N1Cc2cc(Cl)c(Cl)cc2C1	false
24) CC(C)COc1ccc(S(C)(=O)=O)cc1C(=O)N1Cc2cc(Cl)c(N3CCOCC3)cc2C1	true
25) C[C@H](Oc1ccc(S(C)(=O)=O)cc1C(=O)N1CCc2c(Br)cccc21)C(F)(F)F	false
26) CC(C)COc1ccc(S(C)(=O)=O)cc1C(=O)N1Cc2ccc(C(F)(F)F)cc2C1	true
27) C[C@H](Oc1ccc(S(C)(=O)=O)cc1C(=O)N1Cc2ccc(-c3cc(F)cc(F)c3)cc2C1)C(F)(F)F	true
28) Cc1nc2c(cc1C(F)(F)F)CN(C(=O)c1cc(S(C)(=O)=O)ccc1O[C@@H](C)C(F)(F)F)C2	false
